These data points were gathered from patent US12686673B2.

# log10 GI50 per entry
- target.desc: EGFR(D770_N771insSVD) expressing Ba/F3 stable cell line (Homo sapiens, UniProt P00533, DUP768-770, cells depend on it)
- Sequence (P00533 with tags, fused parts or gaps DUP768-770): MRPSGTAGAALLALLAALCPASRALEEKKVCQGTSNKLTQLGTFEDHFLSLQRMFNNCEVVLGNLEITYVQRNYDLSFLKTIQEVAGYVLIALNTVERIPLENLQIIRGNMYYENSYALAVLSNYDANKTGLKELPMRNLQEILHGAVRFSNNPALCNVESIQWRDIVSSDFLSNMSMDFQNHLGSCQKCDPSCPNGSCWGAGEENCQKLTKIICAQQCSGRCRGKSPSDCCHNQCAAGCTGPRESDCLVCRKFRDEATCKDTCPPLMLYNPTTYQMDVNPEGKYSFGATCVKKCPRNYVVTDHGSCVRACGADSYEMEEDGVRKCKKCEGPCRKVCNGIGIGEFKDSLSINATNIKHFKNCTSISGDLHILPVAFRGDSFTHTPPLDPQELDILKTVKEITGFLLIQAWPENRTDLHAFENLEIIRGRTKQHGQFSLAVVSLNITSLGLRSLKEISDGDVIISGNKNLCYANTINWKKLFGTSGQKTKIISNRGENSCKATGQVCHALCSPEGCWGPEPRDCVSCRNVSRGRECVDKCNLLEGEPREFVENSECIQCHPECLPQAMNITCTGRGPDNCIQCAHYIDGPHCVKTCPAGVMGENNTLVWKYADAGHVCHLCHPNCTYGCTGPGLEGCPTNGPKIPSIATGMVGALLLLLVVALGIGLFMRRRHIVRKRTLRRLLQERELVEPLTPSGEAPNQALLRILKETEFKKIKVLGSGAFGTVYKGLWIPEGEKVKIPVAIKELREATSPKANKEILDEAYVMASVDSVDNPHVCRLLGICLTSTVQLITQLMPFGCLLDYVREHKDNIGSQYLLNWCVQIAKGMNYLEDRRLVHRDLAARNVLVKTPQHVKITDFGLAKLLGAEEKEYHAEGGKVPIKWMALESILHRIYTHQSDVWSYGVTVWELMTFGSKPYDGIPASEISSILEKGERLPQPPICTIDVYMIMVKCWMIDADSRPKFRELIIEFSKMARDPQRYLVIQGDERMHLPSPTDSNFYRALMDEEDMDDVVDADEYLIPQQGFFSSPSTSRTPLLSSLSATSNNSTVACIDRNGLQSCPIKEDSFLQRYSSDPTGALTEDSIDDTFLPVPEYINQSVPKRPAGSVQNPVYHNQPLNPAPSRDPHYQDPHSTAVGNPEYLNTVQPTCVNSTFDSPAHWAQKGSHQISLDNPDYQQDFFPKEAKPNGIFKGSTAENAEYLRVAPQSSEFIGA
- assay.explanation: Cellular proliferation (Alamar Blue) assay, EGFR D770_N771insSVD Ba/F3
- Assay type: cell-based
- measurement.context: 72 hr, read-out: D770 IC50
Transform log10 | Measure GI50 | Unit nM

Below, each entry is followed by its recorded log10 GI50 result.
[
  {
    "molecule": "C=CC(=O)Nc1ccc(F)c(Oc2nc(Nc3cnn(C4CCN(C)CC4)c3)ncc2Cl)c1",
    "measured.quantity": "log10 GI50",
    "value.reported": 2.97
  },
  {
    "molecule": "C=CC(=O)Nc1ccc(F)c(Nc2nc(Nc3cnn(C)c3)ncc2-c2ccc(C(F)(F)F)cc2)c1 [Compound 37]",
    "measured.quantity": "log10 GI50",
    "value.reported": 1.53
  },
  {
    "molecule": "C=CC(=O)Nc1ccc(F)c(Nc2nc(Nc3cnn(CC(C)(C)O)c3)ncc2-c2ccc(C(F)(F)F)cc2)c1",
    "measured.quantity": "log10 GI50",
    "value.reported": 2.60
  },
  {
    "molecule": "C=CC(=O)Nc1ccc(F)c(Nc2nc(Nc3cnn(C)c3)ncc2-c2ccnc(Cl)c2)c1",
    "measured.quantity": "log10 GI50",
    "value.reported": 1.93
  },
  {
    "molecule": "C=CC(=O)Nc1ccc(F)c(Nc2nc(Nc3cnn(C)c3)ncc2-c2cncc(OC)c2)c1",
    "measured.quantity": "log10 GI50",
    "value.reported": 2.00
  }
]

The record that follows has no log10 GI50 shown yet.
Consider the molecule `C=CC(=O)Nc1ccc(F)c(Nc2nc(Nc3cnn(C)c3)nnc2Cl)c1` and give its measured log10 GI50. 3.15
